# literature pull: Alpha-2C adrenergic receptor (Homo sapiens) pKi
- TGT: Alpha-2C adrenergic receptor (Homo sapiens)
- Sequence (P18825 whole entry): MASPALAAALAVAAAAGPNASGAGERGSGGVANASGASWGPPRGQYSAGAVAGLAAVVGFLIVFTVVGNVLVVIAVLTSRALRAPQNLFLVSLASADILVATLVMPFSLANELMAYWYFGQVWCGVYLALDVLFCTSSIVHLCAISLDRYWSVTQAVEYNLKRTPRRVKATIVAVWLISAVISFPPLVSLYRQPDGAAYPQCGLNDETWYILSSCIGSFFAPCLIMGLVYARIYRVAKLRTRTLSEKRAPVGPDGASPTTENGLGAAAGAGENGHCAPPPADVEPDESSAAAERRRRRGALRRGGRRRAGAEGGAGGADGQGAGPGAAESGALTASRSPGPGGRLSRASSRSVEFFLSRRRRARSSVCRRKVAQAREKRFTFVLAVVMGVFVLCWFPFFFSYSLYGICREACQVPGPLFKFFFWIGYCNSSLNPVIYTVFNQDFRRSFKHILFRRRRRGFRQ
pKi: −log10 of the molar value.
EXPERIMENTAL ENDPOINT: pKi

Answered cases to consult:
>>> print(df.to_string())
                                   molecule                                       tgt  result_number
0  CC1=C(C(=O)NCCCN2CCC(C#N)(c3ccc(F)cc3C#N)CC2)[C@@H](c2ccc(F)c(F)c2)CC(=O)N1  Alpha-2C adrenergic receptor (Homo sapiens)           5.33
1  CO/C(O)=C1\C(C)=NC(C)=C(C(=O)NCCCN2CCC(c3ccccc3)CC2)C1c1ccc([N+](=O)[O-])cc1 (stereo not given)  Alpha-2C adrenergic receptor (Homo sapiens)           7.09

(P) COc1cccc(N2CCN(CCCCn3ncc(=O)n(C)c3=O)CC2)c1
(Q) Cn1c(=O)cnn(CCCCN2CCN(c3ccccc3OCCF)CC2)c1=O
(R) Nc1cc(Cl)c(N=C2NCCN2)c(Cl)c1
In: Order the records so the highest pKi appears first and the lowest last. Answer with the labels in sequence, matching the requested order.
Out: R, P, Q
